# Assay details: Solubility tests of crystal form A in different solvents (manual stepwise dilution)
# Format: physicochemical
# Setup conditions: aqueous with cosolvent or surfactant or cyclodextrin, thermodynamic from solid; Acetone-water (1:2); atmospheric temperature
Test readout: solubility

Molecule: CN(c1ncnc2[nH]ccc12)[C@@H]1CCn2cc(C#N)nc2C1 [Crystal Form A of Compound 1]
Test readout: solubility
Result: < 2000 µg/mL

* * *

# Assay details: Solubility tests of crystal form A in different solvents (manual stepwise dilution)
# Format: physicochemical
# Setup conditions: organic solvent or mixture, thermodynamic from solid; Isopropanol; atmospheric temperature

Compound: CN(c1ncnc2[nH]ccc12)[C@@H]1CCn2cc(C#N)nc2C1 [Crystal Form A of Compound 1]
solubility: < 2000 µg/mL
